# ASSAY PROTOCOL: physchem
# Format: physicochemical
# STUDY CONDITIONS: aqueous buffer, thermodynamic from solid; 25 mM phosphate buffer pH 6, 24 hours rotation, saturated solution; read-out: Measured solubility at pH 6
# solubility at 24 h values compiled below
ENDPOINT LABEL: solubility at 24 h (µg/mL)

CCCN1CCC[C@@H]2Cc3c(ccc(O)c3OS(N)(=O)=O)C[C@H]21 = 890
CCCN1CCC[C@@H]2Cc3c(ccc(OS(=O)(=O)O)c3O)C[C@H]21 = 37

Reference source for all entries: patent US20240025857A1
